Tested on: kale 'Red Russian'
test: Content analysis of kale: protein, amino acids, fiber, fatty acids, minerals (Example 4, Tables 12-14)
Assay type: in vivo
test.parameters: 28 DA-A, first-listed rate g ai/ha: chlropyrifos ###, chlorothalonil ###, paclobutrazol 3.2, mepiquat-chloride 12, + NIS 0.3 % v/v
Some compounds, each annotated with its measured Leucine, Percent Increase over the Untreated Check (on a % dry matter basis).
measure: Leucine, Percent Increase over the Untreated Check (on a % dry matter basis) (% check)

>  <compound>
C[N+]1(C)CCCCC1 [mepiquat-chloride]

>  <unit.string>
% check

>  <readout.number>
4

$$$$
>  <compound>
N#Cc1c(Cl)c(Cl)c(Cl)c(C#N)c1Cl

>  <unit.string>
% check

>  <readout.number>
4

$$$$
>  <compound>
CC(C)(C)[C@@H](O)[C@@H](Cc1ccc(Cl)cc1)n1cncn1 (racemic)

>  <unit.string>
% check

>  <readout.number>
−7

$$$$
>  <compound>
CCOP(=S)(OCC)Oc1nc(Cl)c(Cl)cc1Cl

>  <unit.string>
% check

>  <readout.number>
0

$$$$

----------
Some compounds, each annotated with its measured ADF, Percent Increase Over the Untreated Check (on a % dry matter basis).
Tested on: basil 'Genovese'
test: Content analysis of basil: protein, minerals (Example 4, Tables 10-11)
Format: in vivo
test.parameters: 28 DA-A, rates g ai/ha: chlroprifos 3370, chlorothalonil 7900, paclobutrazol 9.7, mepiquat-chloride 37, Isoxadifen 16, Napthalic anhydride 527, + NIS 0.25 % v/v
measure: ADF, Percent Increase Over the Untreated Check (on a % dry matter basis) (% check)

>  <compound>
CCOC(=O)C1=NOC(c2ccccc2)(c2ccccc2)C1

>  <readout.number>
13

$$$$
>  <compound>
CC(C)(C)[C@@H](O)[C@@H](Cc1ccc(Cl)cc1)n1cncn1 (racemic)

>  <readout.number>
−12

$$$$
>  <compound>
N#Cc1c(Cl)c(Cl)c(Cl)c(C#N)c1Cl

>  <readout.number>
1

$$$$
>  <compound>
C[N+]1(C)CCCCC1 [mepiquat-chloride]

>  <readout.number>
−9

$$$$
>  <compound>
CCOP(=S)(OCC)Oc1nc(Cl)c(Cl)cc1Cl

>  <readout.number>
10

$$$$
>  <compound>
O=C1OC(=O)c2cccc3cccc1c23 [napthalic anhydride]

>  <readout.number>
4

$$$$

----------
Test system: kale 'Red Russian'
test: Content analysis of kale: protein, amino acids, fiber, fatty acids, minerals (Example 4, Tables 12-14)
Type: in vivo
test.parameters: 28 DA-A, first-listed rate g ai/ha: chlropyrifos ###, chlorothalonil ###, paclobutrazol 3.2, mepiquat-chloride 12, + NIS 0.3 % v/v
Some molecules, each annotated with its measured Threonine, Percent Increase over the Untreated Check (on a % dry matter basis).
measure: Threonine, Percent Increase over the Untreated Check (on a % dry matter basis) (% check)

>  <molecule>
CC(C)(C)[C@@H](O)[C@@H](Cc1ccc(Cl)cc1)n1cncn1 (racemic) [paclobutrazol]

>  <readout.number>
−9

$$$$
>  <molecule>
C[N+]1(C)CCCCC1 [mepiquat-chloride]

>  <readout.number>
6

$$$$
>  <molecule>
CCOP(=S)(OCC)Oc1nc(Cl)c(Cl)cc1Cl [chlropyrifos]

>  <readout.number>
−2

$$$$
>  <molecule>
N#Cc1c(Cl)c(Cl)c(Cl)c(C#N)c1Cl [chlorothalonil]

>  <readout.number>
3

$$$$

----------
Tested on: kale 'Red Russian'
test: Content analysis of kale: protein, amino acids, fiber, fatty acids, minerals (Example 4, Tables 12-14)
Format: in vivo
test.parameters: 28 DA-A, rates g ai/ha: chlropyrifos 1120, chlorothalonil 2630, paclobutrazol 3.23, mepiquat-chloride 12.3, + NIS 0.25 % v/v
measure: Sodium, Percent Increase Over the Untreated Check (on a % dry matter basis) (% check)

>  <molecule>
N#Cc1c(Cl)c(Cl)c(Cl)c(C#N)c1Cl

>  <readout.number>
4

$$$$
>  <molecule>
CC(C)(C)[C@@H](O)[C@@H](Cc1ccc(Cl)cc1)n1cncn1 (racemic)

>  <readout.number>
−1

$$$$
>  <molecule>
CCOP(=S)(OCC)Oc1nc(Cl)c(Cl)cc1Cl

>  <readout.number>
13

$$$$
>  <molecule>
C[N+]1(C)CCCCC1 [mepiquat-chloride]

>  <readout.number>
4

$$$$

----------
Some compounds, each annotated with its measured Cysteine, Percent Increase over the Untreated Check (on a % dry matter basis).
Test system: kale 'Red Russian'
test: Content analysis of kale: protein, amino acids, fiber, fatty acids, minerals (Example 4, Tables 12-14)
Assay type: in vivo
test.parameters: 28 DA-A, first-listed rate g ai/ha: chlropyrifos ###, chlorothalonil ###, paclobutrazol 3.2, mepiquat-chloride 12, + NIS 0.3 % v/v
measure: Cysteine, Percent Increase over the Untreated Check (on a % dry matter basis) (% check)

>  <compound>
C[N+]1(C)CCCCC1 [mepiquat-chloride]

>  <readout.number>
6

$$$$
>  <compound>
CC(C)(C)[C@@H](O)[C@@H](Cc1ccc(Cl)cc1)n1cncn1 (racemic)

>  <readout.number>
−6

$$$$
>  <compound>
N#Cc1c(Cl)c(Cl)c(Cl)c(C#N)c1Cl

>  <readout.number>
−6

$$$$
>  <compound>
CCOP(=S)(OCC)Oc1nc(Cl)c(Cl)cc1Cl

>  <readout.number>
0

$$$$

----------
System: kale 'Red Russian'
test: Content analysis of kale: protein, amino acids, fiber, fatty acids, minerals (Example 4, Tables 12-14)
Assay type: in vivo
test.parameters: 28 DA-A, rates g ai/ha: chlropyrifos 3370, chlorothalonil 7900, paclobutrazol 9.7, mepiquat-chloride 37, + NIS 0.25 % v/v
Some molecules, each annotated with its measured Manganese, Percent Increase Over the Untreated Check (on a % dry matter basis).
measure: Manganese, Percent Increase Over the Untreated Check (on a % dry matter basis) (% check)

>  <molecule>
N#Cc1c(Cl)c(Cl)c(Cl)c(C#N)c1Cl

>  <unit.string>
% check

>  <readout.number>
4

$$$$
>  <molecule>
C[N+]1(C)CCCCC1 [mepiquat-chloride]

>  <unit.string>
% check

>  <readout.number>
−7

$$$$
>  <molecule>
CC(C)(C)[C@@H](O)[C@@H](Cc1ccc(Cl)cc1)n1cncn1 (racemic)

>  <unit.string>
% check

>  <readout.number>
20

$$$$
>  <molecule>
CCOP(=S)(OCC)Oc1nc(Cl)c(Cl)cc1Cl

>  <unit.string>
% check

>  <readout.number>
16

$$$$

----------
Test system: kale 'Red Russian'
test: Visual injury of kale after insecticide, fungicide, PGRs, safeners (Example 4)
test.parameters: 7 DA-A, rates g ai/ha: chlropyrifos 3370, chlorothalonil 7900, paclobutrazol 9.7, mepiquat-chloride 37, + NIS 0.25 % v/v

>  <molecule>
CCOP(=S)(OCC)Oc1nc(Cl)c(Cl)cc1Cl

>  <Phytotoxicity Stunting / %>
6

$$$$
>  <molecule>
C[N+]1(C)CCCCC1 [mepiquat-chloride]

>  <Phytotoxicity Stunting / %>
1

$$$$
>  <molecule>
N#Cc1c(Cl)c(Cl)c(Cl)c(C#N)c1Cl

>  <Phytotoxicity Stunting / %>
1

$$$$
>  <molecule>
CC(C)(C)[C@@H](O)[C@@H](Cc1ccc(Cl)cc1)n1cncn1 (racemic)

>  <Phytotoxicity Stunting / %>
11

$$$$

----------
Test system: sweet corn (Zea mays var. rugosa) cultivar 'Incredible'
test: Content analysis of sweet corn ears: crude protein, amino acids, detergent fiber, fatty acids, minerals (Example 1)
Format: in vivo
test.parameters: POST at b59 rates; every treatment incl. check also got atrazine 560 g ai/ha + COC 1% v/v; relative to treated check (atrazine), check=0
Some compounds, each annotated with its measured tot fattyac.
measure: tot fattyac

>  <compound>
CS(=O)(=O)c1ccc(C(=O)C2C(=O)CCCC2=O)c([N+](=O)[O-])c1 [Mesotrione*CALLISTO, mesotrione]

>  <measure>
tot fattyac

>  <result>
11 % of check

$$$$
>  <compound>
Cc1c(C(=O)c2cnn(C)c2O)ccc(S(C)(=O)=O)c1C1=NOCC1 [Topramezone*IMPACT, topramezone]

>  <measure>
tot fattyac

>  <result>
9 % of check

$$$$
>  <compound>
COc1cc(OC)nc(NC(=O)NS(=O)(=O)c2ncccc2C(=O)N(C)C)n1 [Nicosulfuron*ACCENT, nicosulfuron]

>  <measure>
tot fattyac

>  <result>
13 % of check

$$$$
>  <compound>
CCNc1nc(Cl)nc(NC(C)C)n1 [Atrazine*AATREX, atrazine]

>  <measure>
tot fattyac

>  <result>
0 % of check

$$$$

----------
System: kale 'Red Russian'
test: Content analysis of kale: protein, amino acids, fiber, fatty acids, minerals (Example 4, Tables 12-14)
Assay type: in vivo
test.parameters: 28 DA-A, rates g ai/ha: chlropyrifos 3370, chlorothalonil 7900, paclobutrazol 9.7, mepiquat-chloride 37, + NIS 0.25 % v/v
measure: Phosphorous, Percent Increase Over the Untreated Check (on a % dry matter basis) (% check)

>  <compound>
C[N+]1(C)CCCCC1 [mepiquat-chloride]

>  <readout.number>
1

$$$$
>  <compound>
CCOP(=S)(OCC)Oc1nc(Cl)c(Cl)cc1Cl

>  <readout.number>
7

$$$$
>  <compound>
CC(C)(C)[C@@H](O)[C@@H](Cc1ccc(Cl)cc1)n1cncn1 (racemic)

>  <readout.number>
12

$$$$
>  <compound>
N#Cc1c(Cl)c(Cl)c(Cl)c(C#N)c1Cl

>  <readout.number>
−3

$$$$
